MEASUREMENT TARGET: human A2A receptors (Homo sapiens (Human), UniProt P29274)
Sequence (P29274 whole entry): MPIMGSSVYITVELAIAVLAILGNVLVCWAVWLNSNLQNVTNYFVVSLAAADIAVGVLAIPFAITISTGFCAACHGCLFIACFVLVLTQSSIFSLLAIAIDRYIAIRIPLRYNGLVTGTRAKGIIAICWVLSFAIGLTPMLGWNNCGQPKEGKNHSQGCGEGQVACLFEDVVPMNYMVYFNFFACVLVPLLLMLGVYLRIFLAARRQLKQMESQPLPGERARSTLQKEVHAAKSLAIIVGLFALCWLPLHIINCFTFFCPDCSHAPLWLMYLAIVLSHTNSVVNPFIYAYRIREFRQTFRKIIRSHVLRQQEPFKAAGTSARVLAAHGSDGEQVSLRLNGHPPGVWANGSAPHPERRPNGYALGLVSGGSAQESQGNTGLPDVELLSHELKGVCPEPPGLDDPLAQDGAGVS
METHOD DESCRIPTION: A2A antagonism in cAMP cell-based assay (LANCE cAMP, HEK293)
TEST CONTEXT: HEK293 cells expressing human A2A receptor
pIC50: −log10 of the molar value.
READOUT: pIC50

In [3]: df
Out[3]:
                                   compound  test_result
0  COc1cc2nc(N)n3nc([C@@H]4C[C@H](C)CN(c5cn([C@H](C)[C@@H](C)O)nc5C)C4)nc3c2cc1F (single isomer, unassigned)         9.15
1  COc1cc2nc(N)n3nc(C4CC(C)CN(c5cn(C(C)(C)CO)nc5C)C4)nc3c2cc1F (single isomer, unassigned) [Example 170]         9.10
2  CC1CCC(c2nc3c4cc(F)cc(F)c4nc(N)n3n2)CN1c1cnn(CC(C)(CO)CO)c1 (single isomer, unassigned) [Example 260]         8.77

* * *

Each entry below carries its reported A2A binding % Inh. @ 1000 nM.
MEASUREMENT TARGET: human A2a adenosine receptor (Homo sapiens (Human))
METHOD DESCRIPTION: A2a receptor affinity radioligand binding assay ([3H] SCH58261)
TEST CONTEXT: @ 1000 nM
READOUT: A2A binding % Inh. @ 1000 nM

In [3]: df
Out[3]:
                                   compound                       readout  test_result
0  COc1cc2nc(N)n3nc(C4CN(c5cnn(CC(C)(C)O)c5)CCC4C)nc3c2cc1F (single isomer, unassigned) [Example 67]  A2A binding % Inh. @ 1000 nM     44% Inh.
1  COc1cc2nc(N)n3nc(C4CN(c5cnn(CC(C)(C)O)c5C)CCS4(=O)=O)nc3c2cc1F (single isomer, unassigned) [Example 144]  A2A binding % Inh. @ 1000 nM   30% Inh. @
2  COc1cc2nc(N)n3nc(C4CN(c5cnn(CC(C)(C)O)c5C)CCS4(=O)=O)nc3c2cc1F (single isomer, unassigned) [Example 145]  A2A binding % Inh. @ 1000 nM   32% Inh. @
3  COc1ccc2nc(N)n3nc(C4CCCN(c5cnn(C)c5)C4)nc3c2c1 (single isomer, unassigned) [Example 108]  A2A binding % Inh. @ 1000 nM     36% Inh.
4  COc1cc2nc(N)n3nc(C4CN(c5cn(CC(C)(C)O)nc5C)CCS4(=O)=O)nc3c2cc1F (single isomer, unassigned) [Example 142]  A2A binding % Inh. @ 1000 nM   32% Inh. @

* * *

MEASUREMENT TARGET: human A2B receptors (Homo sapiens (Human))
Sequence (P29275 whole entry): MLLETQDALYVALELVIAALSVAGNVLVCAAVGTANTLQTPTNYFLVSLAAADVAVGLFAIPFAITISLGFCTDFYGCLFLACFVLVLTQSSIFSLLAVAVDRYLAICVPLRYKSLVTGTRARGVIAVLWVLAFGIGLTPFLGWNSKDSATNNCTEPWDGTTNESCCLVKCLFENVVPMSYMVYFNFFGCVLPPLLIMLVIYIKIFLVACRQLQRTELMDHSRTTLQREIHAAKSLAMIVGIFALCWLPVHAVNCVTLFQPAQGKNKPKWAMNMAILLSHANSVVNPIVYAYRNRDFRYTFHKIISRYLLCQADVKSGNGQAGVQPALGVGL
METHOD DESCRIPTION: A2B antagonism in cAMP cell-based assay (LANCE cAMP, HEK293)
TEST CONTEXT: HEK293 cells expressing human A2B receptor
pIC50: −log10 of the molar value.
Each entry below carries its reported pIC50.
READOUT: pIC50

>>> print(df.to_string())
                                   compound  qualifier_sign  test_result
0  COc1cc(F)cc2c1nc(N)n1nc(C3CC(C)CN(c4cnn(CC(C)(C)O)c4C)C3)nc21 (single isomer, unassigned) [Example 174]               =         7.51
1  COc1cc(F)cc2c1nc(N)n1nc(C3CC(C)CN(c4cn(C(C)(C)C(C)O)nc4C)C3)nc21 (single isomer, unassigned) [Example 205]               =         5.94
2  CC(O)C(C)n1cc(N2CC(c3nc4c5cc(F)cc(F)c5nc(N)n4n3)CCC2C)cn1 (single isomer, unassigned) [Example 232]               =         7.90
3  COc1cc(F)cc2c1nc(N)n1nc(C3CC(C)CN(c4cn(C(C)(C)C(C)O)nc4C)C3)nc21 (single isomer, unassigned) [Example 206]               =         5.37
4  Cc1nn(C(C)C(C)O)cc1N1CCC[C@@H](c2nc3c4cc(F)cc(F)c4nc(N)n3n2)C1 (single isomer, unassigned) [Example 191]               =         7.03
5  COc1cc2nc(N)n3nc(C4CCC(C)N(c5cnn(CC(C)(O)CO)c5)C4)nc3c2cc1F (single isomer, unassigned) [Example 253]               <         5.00
6  COc1cc2nc(N)n3nc(C4CCC(C)N(c5cnn(CC(C)(C)N)c5)C4)nc3c2cc1F (single isomer, unassigned) [Example 263]               =         6.29
7  COc1cc2nc(N)n3nc(C4CCC(C)N(c5cnn(CC(C)(O)CO)c5)C4)nc3c2cc1F (single isomer, unassigned) [Example 254]               =         8.00
